The measurements presented in this section are drawn from FireProtDB (doi:10.1021/bi00005a026).

Each entry below lists one item and its recorded unfolding enthalpy (van 't Hoff) value.
B1: Subtilisin-chymotrypsin inhibitor-2A, P01053 (parent)
chain: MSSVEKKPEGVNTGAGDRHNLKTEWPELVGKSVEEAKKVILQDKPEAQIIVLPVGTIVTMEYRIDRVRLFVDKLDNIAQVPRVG

# Variants of: B1
# measurement-context: Hordeum vulgare; pH 6.3; Thermal; Fluorescence; phosphate 10 mM; reversible: yes; structure 2CI2; whole UniProt chain shown
measured-parameter: unfolding enthalpy (van 't Hoff) (kcal/mol)

MSSVEKKPEGVNTGAGDRHNLKTEWPELVGKSVEEAKKAILQDKPEAQIIVLPVGTIVTMEYRIDRVRLFVDKLDNIAQVPRVG : 30
MSSVEKKPEGVNTGAGDRHNLKTEWPELVGKSVEEAKKVILQDKPEAQVIVLPVGTIVTMEYRIDRVRLFVDKLDNIAQVPRVG : 27.8
MSSVEKKPEGVNTGAGDRHNLKTEWPELVGKSVEEAKKVILQDKPEAQIIVLPVGTIVTMEYRIDRVRLFVDKLDNVAQVPRVG : 34.6
MSSVEKKPEGVNTGAGDRHNLKTEWPELVGKSVEEAKAVILQDKPEAQIIVLPVGTIVTMEYRIDRVRLFVDKLDNIAQVPRVG : 34.8
MSSVEKKPEGVNTGAGDRHNLKTEWPELVGKSVNEAKKVILQDKPEAQIIVLPVGTIVTMEYRIDRVRLFVDKLDNIAQVPRVG : 36.1
MSSVEKKPEGVNTGAGDRHNLKTEWPELVGKSVEEAKKVILQDKPEAQIVVLPVGTIVTMEYRIDRVRLFVDKLDNIAQVPRVG : 50.9
MSSVEKKPEGVNTGAGDRHNLKTEWPELVGKSVEEAKKVILQDKPEAQIIVLPAGTIVTMEYRIDRVRLFVDKLDNIAQVPRVG : 40.5
MSSVEKKPEGVNTGAGDRHNLKTEWPELVGKSVEEAAKVILQDKPEAQIIVLPVGTIVTMEYRIDRVRLFVDKLDNIAQVPRVG : 27.2
MSSVEKKPEGVNTGAGDRHNLKTEWPEAVGKSVEEAKKVILQDKPEAQIIVLPVGTIVTMEYRIDRVRLFVDKLDNIAQVPRVG : 34.6
MSSVEKKPEGVNTGAGDRHNLKTEWPELVGKSVEEAKKVVLQDKPEAQIIVLPVGTIVTMEYRIDRVRLFVDKLDNIAQVPRVG : 26.3
MSSVEKKPEGVNTGAGDRHNLKTEWPELVGKSVEEAKKVILQDKPEAQIIVAPVGTIVTMEYRIDRVRLFVDKLDNIAQVPRVG : 42.5
MSSVEKKPEGVNTGAGDRHNLKTEWPELVGKAVEEAKKVILQDKPEAQIIVLPVGTIVTMEYRIDRVRLFVDKLDNIAQVPRVG : 35.4
MSSVEKKPEGVNTGAGDRHNLKTEWPELVGKSVEEAKKVILQDAPEAQIIVLPVGTIVTMEYRIDRVRLFVDKLDNIAQVPRVG : 24.6
MSSVEKKPEGVNTGAGDRHNLKTEWPELVGKSVEEAKGVILQDKPEAQIIVLPVGTIVTMEYRIDRVRLFVDKLDNIAQVPRVG : 37.6
MSSVEKKPEGVNTGAGDRHNLKTEWPELVGKSVEEAKKVILQDKPEAQIIVVPVGTIVTMEYRIDRVRLFVDKLDNIAQVPRVG : 37.3
MSSVEKKPEGVNTGAGDRHNLKTEWPELVGKSVEEAKKVILQDKPEAQIIVLPVGTIVTMEYRIDRVRLLVDKLDNIAQVPRVG : 27.5
MSSVEKKPEGVNTGAGDRHNLKTEWPELVGKSVEEAKKVILQDKPEAQIIVLPVGTIVTMEYRIDRVRLFADKLDNIAQVPRVG : 33.5
